# Tested on: NCI-H522 lung
# Assay Explanation: NCI-60 one-dose screen, 48 h
# Condition Notes: 10 µM unless noted
The panel holds about 83,000 compounds, 20% with a hit somewhere; the sample as a whole holds those more often. The source made the active and inactive calls. The calls were made as follows: active = growth percent below 10; inactive = the rest.
Please state which outcome applies, choosing from true (1) for active, false (0) for inactive

Please review the following examples before continuing.
{"columns": ["Compound", "System Under Test", "Qualitative Label"],
 "data": [
  ["C/C(=N/Nc1nc2ccccc2n1C)c1ccccn1", "NCI-H522 lung", "true (1)"],
  ["Cc1ccc2nc3nc4ccc[nH]c4cc3c2c1", "NCI-H522 lung", "false (0)"],
  ["C1=CC2=CC=C3C=CC=C4C(c5nc6c7ccccc7c7ccccc7c6[nH]5)=CC(=C1)C2C34 (centres undefined)", "NCI-H522 lung", "false (0)"],
  ["COc1cc(C(=O)Nc2cc(OC)c3ccn(C)c3c2)cc2c1C[C@]1(C)CC[C@@H](O)C(C)(C)[C@H]1O2", "NCI-H522 lung", "true (1)"],
  ["N#Cc1c(-c2ccc(F)cc2)nc(N=Nc2c(O)[nH]c3ccc(Cl)cc23)nc1N1CCOCC1", "NCI-H522 lung", "false (0)"]
]}

-- ask Recorded test outcome, item `CCOC(=O)c1c(C)nc2c(c1N)/C(=C/c1cccs1)C(=O)N2Cc1ccccc1`
-- reply false (0)

-- ask Which outcome was entered for the compound `Cc1cccc2nc3c(n12)C(=O)C(=O)c1ccccc1-3` in this test?
-- reply false (0)

-- ask Look up the recorded call for `COc1cc(NC(=O)c2cc(O)c(C/C=C(\C)CCC=C(C)C)c(O)c2)cc2c1O[C@]1(C)CC[C@@H](O)C(C)(C)[C@H]1C2` in this test.
-- reply false (0)

-- ask Hey, what did the test say about `O=c1cc(/C=N\Nc2nc(-c3ccc(Cl)cc3Cl)cs2)c2cc(Cl)ccc2o1` ?
-- reply false (0)

----------
# System: HOP-62 NSCLC
# Assay Explanation: NCI-60 one-dose screen, 48 h (100 = growth as untreated, 0 = no growth, -100 = all killed)
# Condition Notes: 10 µM unless noted
This is part of a sample that, as a whole, favours compounds with a hit. Of some 83,000 tested, about 20% had one in any assay.
Quantity Name: growth (%)
Quick note: give the figure in %, leave out the unit.

{"columns": ["Smiles Notation", "growth / %"],
 "data": [
  ["CC(=O)OC[C@]12CC[C@@H](c3cn(Cc4ccc(Cn5cc([C@@H]6CC[C@]7(COC(C)=O)CC[C@]8(C)[C@H](CC[C@@H]9[C@@]%10(C)CC[C@H](OC(C)=O)C(C)(C)[C@@H]%10CC[C@]98C)[C@@H]67)nn5)cc4)nn3)[C@@H]1[C@H]1CC[C@@H]3[C@@]4(C)CC[C@H](OC(C)=O)C(C)(C)[C@@H]4CC[C@@]3(C)[C@]1(C)CC2", 94.9]
]}

-- ask Given `N#Cc1c(-c2ccc(F)cc2)c(C#N)c2c(C#N)c(N)nn2c1N` , respond with its growth.
-- reply 81

-- ask Give growth for `O=C(CSC(=S)N1CCCCC1)Nc1ccccc1`
-- reply 100

----------
# Test system: U251 CNS
# Assay Explanation: NCI-60 one-dose screen, 48 h (100 = growth as untreated, 0 = no growth, -100 = all killed)
# Condition Notes: 10 µM unless noted
The panel holds about 83,000 compounds, 20% with a hit somewhere; the sample as a whole holds those more often.
Kindly return 1.0 if reported growth is no lower than 80%; return 0.0 if it is lower.

The following compounds have reported results that may help.
{"columns": ["Smiles Notation", "Qualitative Label"],
 "data": [
  ["Cc1ccc(-c2nc(C#N)c(S(=O)(=O)N(C)CCO)o2)cc1", 1.0],
  ["COc1ccc(-n2cc(COc3ccc4c5ccnc(C)c5n(CC(C)C)c4c3)nn2)cc1", 0.0],
  ["C=C1C(=O)O[C@H]2[C@H]1CC/C(C=Nc1c(N)cc(F)cc1Br)=C\\CC[C@@]1(C)O[C@@H]21", 1.0],
  ["C[C@]12CC[C@@H]3c4ccc(O)cc4CC[C@H]3[C@@H]1C[C@H](O)C2", 0.0],
  ["CC1CCN(CCCCCOc2ccc3oc4cc(Cl)ccc4c(=O)c3c2)CC1", 0.0]
]}

-- ask Determine whether measured growth meets or exceeds 80% for `CC(=O)c1c(OCC#N)ccc2c(C)cc(=O)oc12`
-- reply 1.0
